Each entry below carries its reported PBM binding z-score.
Test system: PPARg:RXRa IVT, anti-PPARg (NR concentration 270 nM, RXRa partner concentration 90 nM)
Test: PBM binding z-score (relative to random genomic background probes); higher = stronger binding; sequences stand for … in GC…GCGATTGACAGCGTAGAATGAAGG
Keep it simple and answer with nothing but the number.

*Q* Tell me the measured PBM binding z-score of CGAACTAGGTCAAGGAAAGTGAATCTCCGCACGC , please.
*A* 8.29

*Q* // query: ATCTCTAGGTAACAAGTTCAGTAAAAGAGAGGAC
*A* 3.22

*Q* Also need CCATACGGGTCACTGACAGGTTATAGCATTTGGA , thanks.
*A* 3.21

*Q* Another sequence to look at: ATCTCTAGGTAAAGCTAGTTCAGTGAATGCAAAT
*A* 1.83

*Q* Check CGTCCAAGGTCAAGGTCAGCGAAAGAGACTCGAA too.
*A* 4.71

*Q* Lookup TAGCCTAGGTAATTGGGCCAGTATAGTACGCATC
*A* 2.8

*Q* Now try AGTCAAAGTTCATCTAGGTAAGGTAAGATATGCT .
*A* 3.32

*Q* Moving on to the next sequence: TCTGCTAGGTCAACTATGGTCAGCTAATCTGCTA
*A* 4.24

---

Entries and their measured PBM binding z-score follow.
System: LXRb homodimer (NR concentration 270 nM)
Assay: PBM binding z-score (relative to random genomic background probes); higher = stronger binding; sequences stand for … in GC…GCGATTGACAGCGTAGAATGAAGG

1) CCAACTGGGGCATAAGGTTACCATAAGCCAGCCC    -1.05

*Q* Entry TTACCAAGGTGAAAGGCCGTTGATGCACGCCTTG : reported PBM binding z-score = ?
*A* -0.951

*Q* And then TCATATAGGTAATTGCTAGGTGAAAGTCCGATCT , what is it?
*A* 0.17

*Q* Now this one: AGAATGAGGTTATACGTAGATAAGGGAAGAAAGT
*A* 0.00672

*Q* Similarly, TCATATTGGTAAATGCTAGGTGAAAGTCCGATCT ?
*A* 0.681

---

Test system: PPARg homodimer (NR concentration 180 nM)
Assay: PBM binding z-score (relative to random genomic background probes); higher = stronger binding; sequences stand for … in GC…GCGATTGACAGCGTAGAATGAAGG
assay.readout: PBM binding z-score
Quick one: just the number, no unit, thanks!

*Q* Need PBM binding z-score of GCGTATAGGTAATACAAGGTGAAAGTCCGATTGT , thanks.
*A* 0.129

---

Test system: RARa homodimer (NR concentration 270 nM)
Experiment: PBM binding z-score (relative to random genomic background probes); higher = stronger binding; sequences stand for … in GC…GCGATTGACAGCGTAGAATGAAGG
Label Not satisfied if PBM binding z-score falls below 0.4; label Satisfied in every other case.

Reference set, count: 6
1) CCTACCAGGCCAATCTGGGTCACTCAAGGCTTGA    Not satisfied
2) CTACCAAGGTGAACAAGGACGTTGATTACTATTC    Not satisfied
3) CCGGCTGGGGCATAAGGTTACCATAAGCCAGCCC    Not satisfied
4) ACTAGCTGGTCAGCTGAGGTCACACACAATTCGG    Satisfied
5) TCTATTAGTAGAAGGGCAACCGACGAGTCCGTTT    Not satisfied
6) ATCTCTAGATAACAAGTTCAGTGAAAGAGAGGAC    Satisfied

*Q* I'd appreciate it if you could say whether CGGACTGGGGCAGAAAGGTTACCATACCATCCGG has PBM binding z-score at least equal to 0.4.
*A* Satisfied

*Q* Quick one: CCTACTGGGCCATTCAGAGATCATTGATCATATG
*A* Not satisfied

*Q* What do you get for GGAACGAGGGCAAAGTCGATAGCATCTGTCGACG ?
*A* Not satisfied

*Q* Same lookup for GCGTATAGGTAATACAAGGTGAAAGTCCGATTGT , please.
*A* Satisfied

*Q* Lookup ATCTCTAGGTAAAGTTCAGGGAAAGATCGATAGA
*A* Satisfied

*Q* Entry GGTACAGGGTCAAGGCCAGAGTACGCGTATTGAT please
*A* Satisfied
